Reported values of normalized growth for individual entries
- Procedure details: chemical genetic growth profiling, strain panel (AID 1159580);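 further: tested at 20 µM; growth read once vehicle control cultures reached saturation at 30 °C; 1 = growth at the plate median or of vehicle wells; lower values mean less growth of the strain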
- Condition description: S. cerevisiae deletion strains, growth OD, locus YKL160W, strain elf1, stronger effect = lower value
Out of some 5,500 compounds screened, about 2,000 (36%) were called active. About 18% were inconclusive and are not listed. Some of the results follow.
Reply: number alone, nothing else.

Below: 10 compounds and their reported normalized growth.
Compound	normalized growth
O=C(NC(=O)c1c(F)cccc1F)Nc1ccc(Cl)cc1	1
CN[C@H](CC(=O)O)C(=O)O	1.02
C1CNCCN1	1.02
N[C@@H](Cc1ccc(O)c(O)c1)C(=O)O	1.01
Cc1c(Nc2ncccc2C(=O)O)cccc1C(F)(F)F	0.967
C/C=C/c1ccc2c(c1)OCO2	1
CC(C)(C)NCC(O)c1ccccc1Cl (stereo unspecified)	1.02
Nc1ccc(S(=O)(=O)Nc2ccccn2)cc1	1.02
CNC[C@@H](O)c1ccc(O)c(O)c1	1.03
C=CC(C1=CC(=O)C=CC1=O)c1ccccc1 (stereo unspecified)	0.987

Ask | Could you tell me which normalized growth is on file for NCC(O)c1ccc(O)cc1 (stereo unspecified) ?
Reply | 0.998

Ask | # normalized growth lookup, item C=CCC1(C(C)CCC)C(=O)N=C(S)NC1=O (stereo unspecified)
Reply | 0.972

Ask | Name the recorded normalized growth for Oc1c(Cl)cc(Cl)c2cccnc12 .
Reply | 0.067

Ask | I am curious: what normalized growth value has been reported for CN(C)CCOC(C)(c1ccccc1)c1ccccn1 (stereo unspecified) ?
Reply | 0.988

Ask | # input compound: CCCCC1=NC2(CCCC2)C(=O)N1Cc1ccc(-c2ccccc2-c2nn[nH]n2)cc1 ; wanted: its normalized growth
Reply | 1.01

Ask | Looking for the measured normalized growth of O[N+]1=CC=CCC1=S.On1ccccc1=S.[Zn] , can you help?
Reply | 0.07

Ask | Dear colleague, I am looking for the recorded normalized growth of the following compound: Oc1c(Br)cc(Br)c2cccnc12
Reply | 0.0686
